FYI, the data here is from patent US20240327497A1.

Biological target: canine FcRn (FcRn large subunit with canine beta-2-microglobulin) (canine)
Assay: SPR pH 6.0, IgG coupled to CM5, FcRn 50-800 nM
assay metric: kon

anti-NGF canine IgGB antibody, Fc variant N434R + D312P (antibody, part only; not given: anti-NGF variable domains and light chain, not shown: another chain or arm of the molecule) Fc: APEMLGGPSVFIFPPKPKDTLLIARTPEVTCVVVDLDPEDPEVQISWFVDGKQMQTAKTQPREEQFNGTYRVVSVLPIGHQPWLKGKQFTCKVNNKALPSPIERTISKARGQAHQPSVYVLPPSREELSKNTVSLTCLIKDFFPPDIDVEWQSNGQQEPESKYRTTPPQLDEDGSYFLYSKLSVDKSRWQRGDTFICAVMHEALHRHYTQESLSHSPGK    244000 M⁻¹ s⁻¹

Then this binder:
Prompt: Which kon reading was recorded for the binder anti-NGF canine IgGB antibody, Fc variant A426H + T286L (antibody, part only; not given: Anti-NGF variable domains, not shown: another chain or arm of the molecule; small tags and cut ends) Fc: APEMLGGPSVFIFPPKPKDTLLIARTPEVTCVVVDLDPEDPEVQISWFVDGKQMQLAKTQPREEQFNGTYRVVSVLPIGHQDWLKGKQFTCKVNNKALPSPIERTISKARGQAHQPSVYVLPPSREELSKNTVSLTCLIKDFFPPDIDVEWQSNGQQEPESKYRTTPPQLDEDGSYFLYSKLSVDKSRWQRGDTFICHVMHEALHNHYTQESLSHSPGK ?
Response: 149000 M⁻¹ s⁻¹
